assayTarget: NEDD8-conjugating enzyme Ubc12 (Homo sapiens) + NEDD8-activating enzyme E1 regulatory subunit (Homo sapiens) (UniProt P61081+Q13564)
Sequence (P61081 whole entry, looked up): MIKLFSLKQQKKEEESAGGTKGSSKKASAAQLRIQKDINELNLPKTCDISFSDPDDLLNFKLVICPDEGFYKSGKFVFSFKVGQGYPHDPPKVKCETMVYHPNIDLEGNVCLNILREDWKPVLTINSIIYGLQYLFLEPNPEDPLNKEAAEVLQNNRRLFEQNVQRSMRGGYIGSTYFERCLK
Sequence (Q13564 whole entry, looked up): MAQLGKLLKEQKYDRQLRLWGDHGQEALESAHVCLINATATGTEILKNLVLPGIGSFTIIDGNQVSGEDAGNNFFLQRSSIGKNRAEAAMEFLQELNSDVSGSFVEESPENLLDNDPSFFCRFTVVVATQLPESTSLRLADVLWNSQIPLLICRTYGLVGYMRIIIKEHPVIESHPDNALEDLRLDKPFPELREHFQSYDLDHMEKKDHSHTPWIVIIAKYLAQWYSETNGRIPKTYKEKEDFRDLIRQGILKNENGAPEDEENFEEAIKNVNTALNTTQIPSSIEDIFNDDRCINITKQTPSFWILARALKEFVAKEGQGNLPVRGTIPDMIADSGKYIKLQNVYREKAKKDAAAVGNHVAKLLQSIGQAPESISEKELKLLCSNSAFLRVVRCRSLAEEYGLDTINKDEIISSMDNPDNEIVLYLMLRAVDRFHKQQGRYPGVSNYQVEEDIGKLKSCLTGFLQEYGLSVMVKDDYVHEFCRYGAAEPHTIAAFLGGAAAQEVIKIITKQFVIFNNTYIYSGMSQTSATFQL
assayDetails: inhibitors of cullin neddylation, primary screen, biochemical, TR-FRET, uHTS, NAE and Ubc12 (AID 651699)
conditionNotes: at 25 µM, stronger effect = higher value
The whole screen tested about 360,000 compounds, of which about 2,100 (0.58%) were called active. For the sample, actives were picked, then their nearest neighbours and some compounds at random.
metricName: inhibition (%)
Quick note: give the figure in %, leave out the unit.

INPUT: Recall and state the measured inhibition for `CCCNC(=O)CCn1nc(-c2ccccc2)c2ccccc2c1=O` .
OUTPUT: -0.32

INPUT: Specify inhibition for COc1cccc(Nc2nnc(SCC(=O)N3CC(C)OC(C)C3)s2)c1 (stereo not given) and stop.
OUTPUT: -4.5

INPUT: // Input: `CN(C)c1nc(N)nc(CSc2nnnn2-c2cccc3ccccc23)n1` . Output its inhibition only.
OUTPUT: -6.09

INPUT: Using known records, supply inhibition for `CC(=O)NNC(=O)c1csc(Cc2c(Cl)sc3ccc(Cl)cc23)n1`
OUTPUT: 45.8

INPUT: Given the compound `COc1ccc2oc(C(=O)OCC(=O)N(CC(C)C)c3c(N)n(Cc4ccccc4)c(=O)[nH]c3=O)c(C)c2c1` , write its reported inhibition.
OUTPUT: 44.4

INPUT: Read the entry `CN(CC(=O)Nc1cccc2c1CCCC2)S(=O)(=O)c1ccc(Cl)cc1` and write its reported inhibition.
OUTPUT: 7.5

INPUT: Annotate the compound `CCCCCn1c(=O)c(C(=O)OCC)c(Cl)c2ccccc21` with its measured inhibition.
OUTPUT: 4.01

INPUT: Assign inhibition to the following record: `Cc1c(Cl)cccc1NC(=O)[C@@]1(CC(=O)O)CC(/C=C/c2ccccc2)=NO1`
OUTPUT: -0.33

INPUT: Answer with the recorded inhibition for the compound listed here: `Cc1ccc(S(=O)(=O)NCCc2nnc3ccc(SCc4cccnc4)nn23)cc1`
OUTPUT: -3.01

INPUT: Determine from records and report inhibition for `O=C(N/N=C/c1ccsc1)c1cc(O)cc(O)c1`
OUTPUT: -1.8

----------
Give inhibition for every item shown.
assayTarget: NEDD8-conjugating enzyme Ubc12 (Homo sapiens) + NEDD8-activating enzyme E1 regulatory subunit (Homo sapiens) (UniProt P61081+Q13564)
assayDetails: inhibitors of cullin neddylation, primary screen, biochemical, TR-FRET, uHTS, NAE and Ubc12 (AID 651699)
conditionNotes: at 25 µM, stronger effect = higher value
The whole screen tested about 360,000 compounds, of which about 2,100 (0.58%) were called active. The sample as a whole holds a higher share of actives than the screen did.
The figure you give is taken to be in %; do not add the unit.

INPUT: Supply measured inhibition of O=C(CN1CCN(C(=O)C2CCCO2)CC1)Nc1c(Cl)cccc1Cl (stereo unspecified) in your reply.
OUTPUT: 10.6

INPUT: Please report inhibition for the following compound: COc1cccc(C2CC(c3cccs3)=NN2C(=O)CSC2=NCCS2)c1OC (stereo unspecified)
OUTPUT: 47.3

INPUT: Consider the compound `Clc1cccc(Cc2c(-c3cccc(Cl)c3)nc3ccc(Cl)cn23)c1` . State its measured inhibition.
OUTPUT: -36.7

INPUT: Identify measured inhibition associated with `c1ccc(-c2[nH]ncc2-c2nc3ccccc3[nH]2)cc1`
OUTPUT: 44.3

INPUT: Quote inhibition reported for `O=C(CN1C(=O)CC(c2ccccc2)=Nc2ccccc21)NC1CCCCC1` please.
OUTPUT: -13.9

INPUT: Give me measured inhibition, please, for this compound: `CCOc1ccc(Cl)cc1-c1cc(C(=O)NCc2cccs2)[nH]n1`
OUTPUT: -0.82

INPUT: Give me measured inhibition, please, for this compound: `O=c1c2c(nc3cc(-c4cccc(Cl)c4)[nH]n13)CCCC2`
OUTPUT: 40.3

INPUT: Give recorded inhibition. `Oc1ccccc1CNc1ncc(Br)cc1Br`
OUTPUT: -3.76

INPUT: Report inhibition for O=C(NCc1cccc(Cl)c1)C1CCC(=O)N(C2CC2)C1 (stereo unspecified)
OUTPUT: -4.68

INPUT: Please report inhibition for the following compound: `CCOc1cc(C(=O)Nc2c(C)ccc3nsnc23)cc(OCC)c1OCC`
OUTPUT: 41.7

INPUT: Tell me measured inhibition for `Oc1ccc(-c2[nH]ncc2-c2nc3ccccc3s2)c(O)c1` please.
OUTPUT: -10.2
